# System: Saccharomyces cerevisiae
# Test name: protein stability index of tFT-peptide fusion (C-terminal peptide) (PSI (0-1 scale)); higher = more stable (slower turnover)
# Assay context: genetic background: wild type; temperature: 30 C

>  <Record sequence>
AAPPPRRPCPPL

>  <Target desc>
Saccharomyces cerevisiae

>  <protein stability index>
0.678

$$$$
>  <Record sequence>
PSVRQSSPRFLH

>  <Target desc>
Saccharomyces cerevisiae

>  <protein stability index>
0.667

$$$$
>  <Record sequence>
EGRAAETFVCAI

>  <Target desc>
Saccharomyces cerevisiae

>  <protein stability index>
0.643

$$$$
>  <Record sequence>
GRRPRRLNKDVQ

>  <Target desc>
Saccharomyces cerevisiae

>  <protein stability index>
0.614

$$$$
>  <Record sequence>
SLPRSHRRGPVP

>  <Target desc>
Saccharomyces cerevisiae

>  <protein stability index>
0.663

$$$$
>  <Record sequence>
VVFLWRCRLLLG

>  <Target desc>
Saccharomyces cerevisiae

>  <protein stability index>
0.164

$$$$
>  <Record sequence>
RQRLGLRIIIPS

>  <Target desc>
Saccharomyces cerevisiae

>  <protein stability index>
0.624

$$$$
>  <Record sequence>
FPLGAQTWLCLS

>  <Target desc>
Saccharomyces cerevisiae

>  <protein stability index>
0.318

$$$$
>  <Record sequence>
VGVCLVSLGSWL

>  <Target desc>
Saccharomyces cerevisiae

>  <protein stability index>
0.605

$$$$
>  <Record sequence>
VTGYLSTLTMLC

>  <Target desc>
Saccharomyces cerevisiae

>  <protein stability index>
0.383

$$$$

###

Catalogue of protein stability index readings, one per entry.
# Tested on: Saccharomyces cerevisiae
# Test name: protein stability index of tFT-peptide fusion (C-terminal peptide) (PSI (0-1 scale)); higher = more stable (slower turnover)
# Assay context: genetic background: wild type; temperature: 30 C

>  <Record sequence>
GRGGARARRRVL

>  <protein stability index>
0.687

$$$$
>  <Record sequence>
LLLWCRGGLLGS

>  <protein stability index>
0.753

$$$$
>  <Record sequence>
VLAPPPLLPPPY

>  <protein stability index>
0.684

$$$$
>  <Record sequence>
CGEWSWAGVGVR

>  <protein stability index>
0.702

$$$$
>  <Record sequence>
IPGVPEGLRSLH

>  <protein stability index>
0.629

$$$$
>  <Record sequence>
TYQVVPRDAPYV

>  <protein stability index>
0.672

$$$$
>  <Record sequence>
GSGLWAGLWRAW

>  <protein stability index>
0.727

$$$$
>  <Record sequence>
CGEALGVSWMTL

>  <protein stability index>
0.684

$$$$
>  <Record sequence>
LDLSIKNPIKWR

>  <protein stability index>
0.747

$$$$
>  <Record sequence>
GLQLTLINLPLE

>  <protein stability index>
0.749

$$$$
>  <Record sequence>
FDVLGPRVVSWV

>  <protein stability index>
0.633

$$$$
>  <Record sequence>
LRPSPGYRLGIH

>  <protein stability index>
0.791

$$$$
>  <Record sequence>
CLVSGGRVSRGA

>  <protein stability index>
0.658

$$$$
>  <Record sequence>
RMCPWVSVRVGV

>  <protein stability index>
0.485

$$$$
>  <Record sequence>
RIPHRTRLARPT

>  <protein stability index>
0.672

$$$$
>  <Record sequence>
GVPFPGPNTLIL

>  <protein stability index>
0.73

$$$$
>  <Record sequence>
PPPLDSPPPPPP

>  <protein stability index>
0.664

$$$$
>  <Record sequence>
PPPALPPPPFPP

>  <protein stability index>
0.591

$$$$
>  <Record sequence>
PPPLLSPLSPPP

>  <protein stability index>
0.571

$$$$

###

Overview of reported protein stability index across a group of sequences:
# Tested on: Saccharomyces cerevisiae
# Test name: protein stability index of tFT-peptide fusion (C-terminal peptide) (PSI (0-1 scale)); higher = more stable (slower turnover)
# Assay context: genetic background: wild type; temperature: 30 C

>  <Record sequence>
HNLESLVVAFNE [SPO16 C-terminal 12 aa]

>  <protein stability index>
0.717

$$$$
>  <Record sequence>
LYAFHQVGIHFS [DIM1 C-terminal 12 aa]

>  <protein stability index>
0.685

$$$$
>  <Record sequence>
NDINNSRPITRK [ARO80 C-terminal 12 aa]

>  <protein stability index>
0.666

$$$$
>  <Record sequence>
GLLMAGKASEFQ [VMA16 C-terminal 12 aa]

>  <protein stability index>
0.72

$$$$
>  <Record sequence>
SMALRTVSILEN [YGL152C C-terminal 12 aa]

>  <protein stability index>
0.649

$$$$
>  <Record sequence>
TSNGGVEETMKM [ARX1 C-terminal 12 aa]

>  <protein stability index>
0.676

$$$$
>  <Record sequence>
KLVDVRKVYYSS [MRPS5 C-terminal 12 aa]

>  <protein stability index>
0.623

$$$$
>  <Record sequence>
IDLSKKLSFYNY [GMH1 C-terminal 12 aa]

>  <protein stability index>
0.554

$$$$
>  <Record sequence>
HIFEKKIFHTNL [YOL097W-A C-terminal 12 aa]

>  <protein stability index>
0.65

$$$$
>  <Record sequence>
SGGWDRSIKLWN [PRP4 C-terminal 12 aa]

>  <protein stability index>
0.681

$$$$
>  <Record sequence>
EEEEEEGKEGDA [SCT1 C-terminal 12 aa]

>  <protein stability index>
0.697

$$$$
>  <Record sequence>
FKIFCNCIQSLA [YPL199C C-terminal 12 aa]

>  <protein stability index>
0.323

$$$$

###

# Test system: Saccharomyces cerevisiae
# Test name: protein stability index of tFT-peptide fusion (C-terminal peptide) (PSI (0-1 scale)); higher = more stable (slower turnover)
# Assay context: genetic background: wild type; temperature: 30 C
Measurement type: protein stability index

>  <Record sequence>
FRFFYLPVSVVA

>  <Result value>
0.142

$$$$
>  <Record sequence>
FASVFCVVTGYV

>  <Result value>
0.429

$$$$
>  <Record sequence>
LLLPVFLVFSVS

>  <Result value>
0.256

$$$$
>  <Record sequence>
CHSICLVILEFI

>  <Result value>
0.198

$$$$
>  <Record sequence>
LVVFLRFFLRVL

>  <Result value>
0.114

$$$$
>  <Record sequence>
HYTSFAVPPLVY

>  <Result value>
0.376

$$$$
>  <Record sequence>
RVCYQIAISLPI

>  <Result value>
0.432

$$$$
>  <Record sequence>
LIPFPGFFILLT

>  <Result value>
0.28

$$$$
>  <Record sequence>
ALEIIRLSHRLC

>  <Result value>
0.0791

$$$$
>  <Record sequence>
EWFFCLGLFRFH

>  <Result value>
0.235

$$$$
>  <Record sequence>
LPSLRPPPCIRA

>  <Result value>
0.345

$$$$
>  <Record sequence>
CVLSWSLFVVVW

>  <Result value>
0.0168

$$$$
>  <Record sequence>
RVITRMLLMVIR

>  <Result value>
0.359

$$$$
>  <Record sequence>
CREFLQSMLFYC

>  <Result value>
0.281

$$$$
>  <Record sequence>
CFVWFSVVLLFA

>  <Result value>
0.117

$$$$
>  <Record sequence>
WFIFATFLILVT

>  <Result value>
0.121

$$$$
>  <Record sequence>
SWGRGADRWRRA

>  <Result value>
0.195

$$$$
>  <Record sequence>
ETVHVISLIAIG

>  <Result value>
0.33

$$$$
>  <Record sequence>
CCVLGDRCIGSD

>  <Result value>
0.655

$$$$
>  <Record sequence>
LTIYPLTYCFVS

>  <Result value>
0.44

$$$$
>  <Record sequence>
VGLWFLCSLAFS

>  <Result value>
0.346

$$$$
>  <Record sequence>
FFVEFFLLCFCS

>  <Result value>
0.472

$$$$
>  <Record sequence>
VVPYPFLTLLNI

>  <Result value>
0.381

$$$$
>  <Record sequence>
CIIAVMISIVSF

>  <Result value>
0.0274

$$$$
>  <Record sequence>
SGPTIRRRLFVH

>  <Result value>
0.17

$$$$
>  <Record sequence>
VTWNFIVYVCCF

>  <Result value>
0.19

$$$$
>  <Record sequence>
PLYFSVFSLLFL

>  <Result value>
0.41

$$$$
>  <Record sequence>
DKKPMKKILLCI

>  <Result value>
0.0973

$$$$
>  <Record sequence>
FCMLCVVFLGSL

>  <Result value>
0.397

$$$$
>  <Record sequence>
LLCSPPPLTVPA

>  <Result value>
0.327

$$$$
>  <Record sequence>
PRSLHVLSRFLP

>  <Result value>
0.606

$$$$
>  <Record sequence>
LDRLTTWTLIVR

>  <Result value>
0.365

$$$$
>  <Record sequence>
TGGGGRVSLGGG

>  <Result value>
0.372

$$$$
>  <Record sequence>
VLFSVWFFLVLV

>  <Result value>
0.103

$$$$
>  <Record sequence>
VFTGYSAFLLLC

>  <Result value>
0.0748

$$$$
>  <Record sequence>
GYLVFTLRWLRG

>  <Result value>
0.305

$$$$
>  <Record sequence>
ELTYVYRTALIA

>  <Result value>
0.105

$$$$
>  <Record sequence>
YPSASLLPLFSC

>  <Result value>
0.136

$$$$
>  <Record sequence>
VRINLLFVWFSR

>  <Result value>
0.334

$$$$
>  <Record sequence>
SPSRAGQHLYYP

>  <Result value>
0.662

$$$$
>  <Record sequence>
QRAVGLANFTIK

>  <Result value>
0.669

$$$$
>  <Record sequence>
TVILVLFPSPFL

>  <Result value>
0.484

$$$$
>  <Record sequence>
DRYSFYGYVVVL

>  <Result value>
0.186

$$$$
>  <Record sequence>
FFLLLLRPPLVM

>  <Result value>
0.267

$$$$
>  <Record sequence>
RGSRLVPRLLRP

>  <Result value>
0.656

$$$$
>  <Record sequence>
GRGRGGRWGRLC

>  <Result value>
0.215

$$$$
>  <Record sequence>
RLDAPGLSRTEN

>  <Result value>
0.646

$$$$
>  <Record sequence>
PPPYPPPPARSL

>  <Result value>
0.689

$$$$
>  <Record sequence>
KQSGLQIKRRKL

>  <Result value>
0.7

$$$$
>  <Record sequence>
LSRELRFVGFYH

>  <Result value>
0.229

$$$$
>  <Record sequence>
VVRVSFSFCLSC

>  <Result value>
0.388

$$$$
>  <Record sequence>
GPWVIFSHLLLT

>  <Result value>
0.249

$$$$
>  <Record sequence>
FILLTLVFGCAS

>  <Result value>
0.22

$$$$
>  <Record sequence>
PPPLPPPSPSRP

>  <Result value>
0.673

$$$$
>  <Record sequence>
GPCRPWIVVYAG

>  <Result value>
0.333

$$$$
>  <Record sequence>
VTGYLSTLTMLC

>  <Result value>
0.247

$$$$
>  <Record sequence>
WAFVVCGAVFFW

>  <Result value>
0.282

$$$$
>  <Record sequence>
CLLLFFIFLLFL

>  <Result value>
0.376

$$$$
>  <Record sequence>
LRLFIFLLFSVF

>  <Result value>
0.175

$$$$
>  <Record sequence>
LCLLHCSICISF

>  <Result value>
0.295

$$$$
>  <Record sequence>
PPLLLFLSLAFL

>  <Result value>
0.271

$$$$
>  <Record sequence>
GTHWARLGWLLA

>  <Result value>
0.176

$$$$
>  <Record sequence>
YLCCFSVAFFLG

>  <Result value>
0.153

$$$$
>  <Record sequence>
GFFFLFFVSAFI

>  <Result value>
0.311

$$$$
>  <Record sequence>
LLLFLHILRYVF

>  <Result value>
0.368

$$$$
>  <Record sequence>
YWRNYLVLVCKF

>  <Result value>
0.481

$$$$
>  <Record sequence>
IRFFLIVFCFLR

>  <Result value>
0.203

$$$$
>  <Record sequence>
VRYCFFWVRAVV

>  <Result value>
0.194

$$$$
>  <Record sequence>
WSLRFRRMMLRC

>  <Result value>
0.127

$$$$
>  <Record sequence>
LSRLWVVGWVVA

>  <Result value>
0.234

$$$$
>  <Record sequence>
RGGWVVVLGCVG

>  <Result value>
0.486

$$$$
>  <Record sequence>
VVLVGVAVCRLG

>  <Result value>
0.277

$$$$
>  <Record sequence>
LIIVFGFTSILR

>  <Result value>
0.328

$$$$
>  <Record sequence>
LCVFFRCFFVGG

>  <Result value>
0.448

$$$$
>  <Record sequence>
LGVLVVCFNATY

>  <Result value>
0.264

$$$$
>  <Record sequence>
PAVRRLTGLMLM

>  <Result value>
0.321

$$$$
>  <Record sequence>
SRLLGVKVSLVC

>  <Result value>
0.384

$$$$
>  <Record sequence>
SRFFSSSFYRLC

>  <Result value>
0.198

$$$$
>  <Record sequence>
GACRVSSCVVVC

>  <Result value>
0.358

$$$$
>  <Record sequence>
GPPVPLSPPLSP

>  <Result value>
0.341

$$$$
>  <Record sequence>
PPPPPPPAPASP

>  <Result value>
0.635

$$$$
>  <Record sequence>
KLVFLLCLNKVF

>  <Result value>
0.199

$$$$
